Just for reference, patent US20240409645A1 is where these values come from.

pEC50 listing for selected binders.
Target: T1, cynomolgus monkey IL-2Rβ/CD122 subunit (cynomolgus monkey, UniProt Q38J85 27-239, limits assumed)
T1 construct: also called Cyno IL-2R subunit
T1 sequence (looked up): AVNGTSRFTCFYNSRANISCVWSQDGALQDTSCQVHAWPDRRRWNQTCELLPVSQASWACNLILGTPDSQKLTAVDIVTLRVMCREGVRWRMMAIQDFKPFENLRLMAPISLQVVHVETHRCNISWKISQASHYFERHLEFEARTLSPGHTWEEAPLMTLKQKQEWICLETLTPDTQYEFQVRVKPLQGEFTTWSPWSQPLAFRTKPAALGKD
Experiment: ELISA, bivalent VHH-hFc
pEC50: −log10 of the molar value.

binder	pEC50
297-MP06A08 VHH-hFc, monospecific bivalent (Fc fusion, IgG1 Fc LALA-PG; not shown: human IgG1 CH2 and CH3 domains (Fc)) EVQLVESGGGLVQAGESLRLSCAASGQYFSTYSMAWFRRTPGKEREFVTIISESGGIKEYVDSVKGRFTVSRDNAKNTVYLQMNSLKPEDTAVYYCAAARDWFARNEYQYDYWGQGTQVTVSS	10.05
193-MP02F12 VHH-hFc, monospecific bivalent (Fc fusion, IgG1 Fc LALA-PG; not shown: human IgG1 CH2 and CH3 domains (Fc)) QLQLVESGGGLVQTGTSLRLSCAASGHTSRINAMGWFRQFPGKEREFVAAISRNGGSTVYVDSVKGRFTISRDNAKSTVYLQMNSLKPEDTAVYYCTATDAVGWTTRWMTADFGFWGQGTQVTVSS	10.00
